System: LOX IMVI melanoma
Assay: NCI-60 one-dose screen, 48 h (100 = growth as untreated, 0 = no growth, -100 = all killed)
Settings: 10 µM unless noted
Method: Growth inhibition of the LOX IMVI human tumor cell line is measured as a screen for anti-cancer activity. Cells are grown in 96 well plates and exposed to the test compound for 48 hours. Compounds are tested at a single concentration, which is 10^-5 M for most compounds. The reported endpoint is percent growth (GI% or GIPRCNT), where numbers from 0 - 100% represent growth inhibition, and numbers from -100% - 0 represent cell death. For example, a value of 40 represents 60% growth inhibition. […]
Compounds without any hit were thinned out: in the full panel of roughly 83,000, 20% have a hit.
Grouping by measured growth is done with the following cut points: lower bin (below -30%), middle bin (-30% to below 30%), upper bin (30% or more)

Just checking, what class would you give Cc1ccc(-c2cc3nc(C(Cl)Cl)nc(-c4ccc(S(=O)(=O)N(C)C)cc4)n3n2)cc1 here? upper bin

Band assignment needed for Cc1ccc(C)c(NC2=C(Cl)C(=O)c3nc(C)ccc3C2=O)c1 please. lower bin

Which category does the recorded growth put COc1ccc2[nH]cc(/C=N/Nc3ccnc4cc(Cl)ccc34)c2c1 in? lower bin

Please classify: Cn1cc(-c2nc(N)nnc2-c2c[nH]c3ccc(Br)cc23)c2cc(F)ccc21 upper bin

Category of Cc1ccc(CSC2=C(Cl)CN(c3ccc(Cl)cc3)C2=O)cc1 , please. upper bin

Which category fits this record: Cc1cc(C)cc(NC2=C(Cl)C(=O)c3nc(C)ccc3C2=O)c1 middle bin

Each molecule maps to one class by growth. Which class for CC(Nc1c(C#N)cnc2ccc(-c3cncc(O)c3)cc12)c1ccccc1 (stereo not given) ? middle bin

Which class is correct for the following molecule? N#Cc1c(-c2cccs2)cc(-c2cnccn2)nc1SCC(=O)N/N=C/c1ccccc1 middle bin

Lab note: which band did COc1ccc2c(c1)c(/C=N/Nc1ccnc3cc(Cl)ccc13)cn2C land in? lower bin
